Just for reference, PubChem BioAssay AID652245 is where these values come from.

- MEASUREMENT TARGET: Galanin receptor type 3 (Homo sapiens) (UniProt O60755)
- Sequence (O60755 1-299 limits assumed): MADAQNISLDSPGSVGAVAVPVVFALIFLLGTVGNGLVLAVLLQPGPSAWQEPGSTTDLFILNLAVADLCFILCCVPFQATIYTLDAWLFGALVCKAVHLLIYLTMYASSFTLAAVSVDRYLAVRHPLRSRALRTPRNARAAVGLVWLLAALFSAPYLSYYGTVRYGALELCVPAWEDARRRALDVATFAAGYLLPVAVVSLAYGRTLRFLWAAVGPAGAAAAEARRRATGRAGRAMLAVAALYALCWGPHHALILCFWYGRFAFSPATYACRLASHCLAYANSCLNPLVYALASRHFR
- PROCEDURE TEXT: blockers of human galanin receptor 3 – cell-based, fluorescence, triplicate, confirmation (AID 652245)
- DETAILS: HEK293 GalR3 CNG cAMP biosensor, membrane potential fluorescence; at 3 µM; challenged with forskolin and galanin at EC90; galR3 fused to GalR1 carboxy tail
Hit rate of the full screen: of about 1,600 compounds, about 920 (58%) were called active.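 How the source made its calls: active means inhibition above the primary screen's cutoff, the mean inhibition of all screened compounds plus 3 SD (cut at about 13% in these data); inactive means the rest.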 So high a share suggests a set chosen from earlier hits. Only a sample is shown.
The reply should name one outcome from active, inactive

Dear colleague, could you share the recorded outcome for Nc1ncnc2c1ncn2C1OC(CO)CC1O (centres undefined) when you have a moment?
active

Dear colleague, could you share the recorded outcome for `CC(C)[C@@H](C(=O)OCC(=O)c1ccc2c(c1)NC(=O)CO2)N1C(=O)c2ccccc2C1=O` when you have a moment?
inactive

Dear colleague, could you share the recorded outcome for COc1ccc(-c2[nH]nc3c2C(c2ccncc2)C(C#N)=C(N)O3)cc1 (centres undefined) when you have a moment?
inactive

More entries:
Dear colleague, could you share the recorded outcome for CNC(=O)NC(=O)CSc1nnc(-c2ccc(F)cc2)n1CC1CCCO1 (centres undefined) when you have a moment?
active
